System: carbonyl reductase
Assay: Substrate specificity: NADPH-dependent reduction by the carbonyl reductase obtained in Example 1
Format: biochemical, Torulaspora delbrueckii
Conditions: substrate 20 mM, coenzyme NADPH; reduction of 3,4-dimethoxyphenylacetone regarded as 100
Description: A reaction solution comprising 50 mM potassium phosphate buffer (pH 6.5), 0.2 mM NADPH, 5 mM 3,4-dimethoxyphenylacetone, and an enzyme is reacted at 30° C. Any decrease in absorbance at 340 nm accompanying a decrease in NADPH is measured. […] The enzyme obtained in Example 1 was reacted with various ketones, ketoesters, and soon. […] An increase in absorbance at 340 nm, accompanying NADPH production, was measured. […]
Use 1000% as the dividing line for Relative activity, with the line itself on the Met side and lower values as Not met.

[[record]]
molecule = "COC(=O)CC(=O)CCl [Methyl 4-chloroacetoacetate]"
group_label = "Met"

[[record]]
molecule = "COCC(C)=O"
group_label = "Not met"

[[record]]
molecule = "COC(=O)C(C)=O [Methyl pyruvate]"
group_label = "Met"

[[record]]
molecule = "CC(=O)COC(C)=O"
group_label = "Met"

[[record]]
molecule = "CC(=O)COc1ccccc1"
group_label = "Not met"

[[record]]
molecule = "CC(=O)C(C)=O"
group_label = "Met"


###

Reported Relative activity values for the following compounds.
tested on: carbonyl reductase; assay: Substrate specificity: NADPH-dependent reduction by the carbonyl reductase obtained in Example 1; assay type: biochemical, Torulaspora delbrueckii; details: substrate 20 mM, coenzyme NADPH; reduction of 3,4-dimethoxyphenylacetone regarded as 100
PROPERTY: Relative activity (%)

[[record]]
compound = "CC(=O)CCc1ccccc1"
target_entity = "carbonyl reductase"
number = 739

[[record]]
compound = "CCOC(=O)CC(=O)CCl [Ethyl 4-chloroacetoacetate]"
target_entity = "carbonyl reductase"
number = 6780

[[record]]
compound = "CCC(=O)c1ccc(OC)cc1"
target_entity = "carbonyl reductase"
number = 283

[[record]]
compound = "CCC(=O)C(C)=O"
target_entity = "carbonyl reductase"
number = 2590


Hey, just so you know, these numbers are from patent US7083962B2.
